Target: GPIIb/IIIa (Homo sapiens, UniProt P05106+P08514)
Sequence (P08514 32-887 limits assumed): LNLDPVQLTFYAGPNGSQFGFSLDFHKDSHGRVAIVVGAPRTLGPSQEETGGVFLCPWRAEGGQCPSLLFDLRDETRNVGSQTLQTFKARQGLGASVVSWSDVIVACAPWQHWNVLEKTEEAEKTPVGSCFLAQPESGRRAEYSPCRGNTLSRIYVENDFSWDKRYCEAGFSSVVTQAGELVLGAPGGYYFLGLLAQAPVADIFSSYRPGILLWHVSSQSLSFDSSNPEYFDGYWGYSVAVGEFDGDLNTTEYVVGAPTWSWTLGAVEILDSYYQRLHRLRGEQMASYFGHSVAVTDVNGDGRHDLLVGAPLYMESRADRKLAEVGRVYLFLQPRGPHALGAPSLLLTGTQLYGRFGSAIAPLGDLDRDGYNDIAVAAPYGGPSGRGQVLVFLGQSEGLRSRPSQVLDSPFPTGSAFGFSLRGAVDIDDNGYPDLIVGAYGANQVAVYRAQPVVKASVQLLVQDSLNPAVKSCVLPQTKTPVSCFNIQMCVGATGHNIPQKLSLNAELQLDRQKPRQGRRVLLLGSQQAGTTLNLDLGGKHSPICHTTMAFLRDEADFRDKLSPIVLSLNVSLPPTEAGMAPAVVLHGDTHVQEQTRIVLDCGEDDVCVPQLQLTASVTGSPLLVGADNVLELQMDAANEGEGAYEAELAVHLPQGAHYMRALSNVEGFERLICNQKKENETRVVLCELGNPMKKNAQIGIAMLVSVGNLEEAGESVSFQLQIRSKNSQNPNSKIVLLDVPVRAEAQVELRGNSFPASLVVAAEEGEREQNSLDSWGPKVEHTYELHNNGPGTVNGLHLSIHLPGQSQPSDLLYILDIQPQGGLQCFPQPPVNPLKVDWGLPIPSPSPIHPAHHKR
Sequence (P05106 27-788): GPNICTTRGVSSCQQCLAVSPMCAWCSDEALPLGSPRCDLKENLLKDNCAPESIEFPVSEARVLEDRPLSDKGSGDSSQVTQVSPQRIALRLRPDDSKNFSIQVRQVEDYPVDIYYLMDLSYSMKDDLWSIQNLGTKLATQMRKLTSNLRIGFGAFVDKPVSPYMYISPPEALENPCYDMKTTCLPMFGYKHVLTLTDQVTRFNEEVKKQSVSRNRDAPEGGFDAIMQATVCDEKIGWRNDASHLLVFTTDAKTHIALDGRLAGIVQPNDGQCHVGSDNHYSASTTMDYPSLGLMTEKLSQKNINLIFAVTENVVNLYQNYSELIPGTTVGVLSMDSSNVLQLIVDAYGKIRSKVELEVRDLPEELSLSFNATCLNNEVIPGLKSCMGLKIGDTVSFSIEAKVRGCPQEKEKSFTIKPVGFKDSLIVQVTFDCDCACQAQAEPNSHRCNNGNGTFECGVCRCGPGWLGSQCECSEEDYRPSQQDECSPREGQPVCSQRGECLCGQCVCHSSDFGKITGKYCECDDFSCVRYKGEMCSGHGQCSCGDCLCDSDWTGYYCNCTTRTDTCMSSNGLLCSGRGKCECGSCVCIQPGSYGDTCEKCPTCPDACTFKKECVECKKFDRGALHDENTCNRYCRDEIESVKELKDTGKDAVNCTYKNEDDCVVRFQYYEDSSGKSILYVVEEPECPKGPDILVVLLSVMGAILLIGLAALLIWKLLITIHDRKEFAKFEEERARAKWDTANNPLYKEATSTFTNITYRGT
Assay: In vitro solid phase purified glycoprotein IIb/IIIa binding assay (biotinylated fibrinogen)
Conditions: Table I
Procedure: The compounds of the present invention interrupt binding of fibrinogen to platelet glycoprotein IIb/IIIa (GPIIb/IIIa) and thereby inhibit platelet aggregation. […] Because the final, common pathway in normal platelet aggregation is the binding of fibrinogen to activated, exposed GPIIb/IIIa, inhibition of this binding represents a plausible antithrombotic approach. […] The plate is covered and incubated overnight at 4° C. […] The absorbance is read at 490 nm.
reported-metric: IC50 (nM)
Supply the numeric figure in nM, leaving out any unit text.

Reference set (2 entries):
compound	number
CC(=O)N[C@H](CCCCN)C(=O)N1CCCC(C(=O)NCCC(=O)O)C1 (stereo partly drawn)	340
O=C(O)CCNC(=O)C1CCCN(C(=O)CCC2CCNCC2)C1 (stereo not drawn)	3

Now consider a different compound.
Query :: Which value of IC50 has been reported for NCCCC[C@H](N)C(=O)N1CCCC(C(=O)NCCC(=O)O)C1 (stereo partly drawn) in the records?
Result :: 2600
